Data provenance is PubChem BioAssay AID1508600.

Exercise: state measured z-score for each of the sequences provided.
assay.info: Components of the Cytosolic LPS Sensing Pathway: Gene Identification via Genome-wide siRNA Screen;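 further: robust z of the log signal after scaling to non-targeting control siRNA wells of the plate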
condition.parameters: RAW264.7 macrophages, IL-1a HTRF, actives lie on both sides, screened at 100 nM (by protocol), cells primed 5 h with Pam3CSK4 first
In all, about 53,000 sequences went through this assay and about 3,700 (7%) were called active. The sample as a whole holds a higher share of actives than the screen did.

>  <sequence.string>
GGGUAUUGGUUUUAGAGCATT against Emd

>  <reported.metric>
z-score

>  <obs.value>
0.37 (inactive)

$$$$
>  <sequence.string>
GGAGAAAUAACUGAAAUUCTT against Klhl13

>  <reported.metric>
z-score

>  <obs.value>
-0.816 (inactive)

$$$$
>  <sequence.string>
GGCAAUGGUUCAGCAGUGGTT against Eef1e1

>  <reported.metric>
z-score

>  <obs.value>
-0.564 (inactive)

$$$$
>  <sequence.string>
GGACAUGGCUUUAUAACCUTT against Dcdc5

>  <reported.metric>
z-score

>  <obs.value>
0.256 (inactive)

$$$$

Looking for the measured z-score of GCUGUAAGCCAAUUAACAUTT against Emp1 , can you help? 1.06 (inactive)

====

assay.info: Components of the Cytosolic LPS Sensing Pathway: Gene Identification via Genome-wide siRNA Screen;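 further: robust z of the log signal after scaling to non-targeting control siRNA wells of the plate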
condition.parameters: RAW264.7 macrophages, IL-1a HTRF, actives lie on both sides, screened at 100 nM (by protocol), cells primed 5 h with Pam3CSK4 first
About 3,700 (7%) of roughly 53,000 sequences were called active.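 Rule for the calls: active = gene knockdowns whose robust z-score for IL-1 alpha signal is at least 2 or at most -2, so actives lie on both sides; inactive = the rest.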 The sample as a whole holds a higher share of actives than the screen did.
API: response.call in active, inactive

The following sequences have reported results that may help.
>  <sequence.string>
CCGAUCAUUAUGAGCAUACTT against Nxf7

>  <assigned.label>
inactive

$$$$
>  <sequence.string>
CCAUGUACCAGAUUAAGUATT against Krt8

>  <assigned.label>
inactive

$$$$

Each sequence tested received a call. Report the one for GGUGGAUAAAGCUUAAAUATT against V1rg10 . inactive

Just curious, what result did GGAUUAUAUGCCAAGUGAUTT against Phyh get here? inactive

Tell me the recorded outcome of this test for CCGGUUACCAAUUGAUAAATT against Smc3 . inactive

Kindly provide the recorded test outcome for the following sequence: GGAGUGACAAAAGAAAUAATT against Nudt12 inactive

Test call, this sequence: GGAGAACUCCAGGUUGGCATT against Eaf1 active

Assay result, entry GCCACUCUAGCUCGUAUUGTT against Des — outcome? inactive

Any idea what this test logged for GCUACUUCAUGGAAUCUUCTT against Mrgprb8 ? inactive

Hey, what did the test say about GGUGCUACAAGUGUACUGATT against Zswim2 ? active

Recorded call for GGGAAUGGCUUGAUUCUGUTT against Olfr609 ? inactive

Outcome logged for GCAAUACGAAGGCGAAAGCTT against P3h4 in this assay: inactive

====

assay.info: Components of the Cytosolic LPS Sensing Pathway: Gene Identification via Genome-wide siRNA Screen;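 further: robust z of the log signal after scaling to non-targeting control siRNA wells of the plate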
condition.parameters: RAW264.7 macrophages, IL-1a HTRF, actives lie on both sides, screened at 100 nM (by protocol), cells primed 5 h with Pam3CSK4 first
Screen size: about 53,000 sequences; about 3,700 (7%) were called active. The full list was thinned out, with actives kept by preference.
reported.metric: z-score

Report z-score for every entry below.
1. CCGUUGUAUAUACCAGUAUTT against Syt1
2. CCAAAUAUCCGGCCAUGACTT against Lgals6
3. CCAGUUUUCGACACAAUUCTT against Cma1
4. GCAUCAUUAUCUUACCAACTT against Olfr826
5. AUCCAUUUUGUGCUAGGCATT against Cacfd1
6. GGAACACUGGAAAAAUGUUTT against Ldhc
7. GGUUCUCUGAUACCCACUCTT against Mgat4e

["0.218 (inactive)", "-0.877 (inactive)", "0.645 (inactive)", "-0.994 (inactive)", "0.473 (inactive)", "0.176 (inactive)", "0.44 (inactive)"]
